TARGET_OF_ASSAY: intestinal α-glucosidase
Construct: called intestinal; pNPG assay after Kim et al; 5KZW (docking only) is not the assayed enzyme
TEST_DESCRIPTION: p-nitrophenol release from pNPG, absorbance […] nm
CONDITION_DESCRIPTION: p-nitrophenyl α-D-glucopyranoside (250 μL of 20 mM), sodium phosphate pH 6.9, 37°C, 10 min preincubation
pIC50: −log10 of the molar value.

{"COMPOUND": "O=C(O)/C=C/c1ccc(O)c(O)c1 [caffeic acid]", "pIC50": 2.98}

meta.source: paper PMC8279857
